FYI, the data here is from paper PMC9482650.

# systemUnderTest: T1, LRRC7, Q96NW7
# T1 sequence (Q96NW7 1440-1537, limits assumed, looked up): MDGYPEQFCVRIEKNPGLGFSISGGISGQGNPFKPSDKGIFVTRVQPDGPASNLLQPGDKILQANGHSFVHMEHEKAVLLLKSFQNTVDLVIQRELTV
# assayOverview: holdup assay
# Set-up: key: below the threshold = too weak to quantify, mostly under pKd 3.1 to 4
# conditionParameters: plain residues with an end cap or a label only (N-terminal biotin on a linker: ado-ado)
readoutLabel: pKd

Example entries and their recorded answers appear below.
QKNKDREYYV [NRXN3, Q9HDB5]; below the threshold
NSTHNLKDYV [CLDN20, P56880]; below the threshold
RGKNRRQSIF [CDK18, Q07002]; below the threshold
IKLETKKTKL [SLC15A2, Q16348]; below the threshold
RSPVATATSC [DUSP5, Q16690]; below the threshold

So what's the measured pKd for this one? DYSNLRETDI [ADRA1D, P25100]
3.48

Likewise for HYPASPDSWV [CTNND2, Q9UQB3] ?
4.97

Likewise for DSEEELPTRL [GRK6, P43250] ?
below the threshold

Likewise for VCMGDHWFDV [PRKN, O60260] ?
3.75

Likewise for DLLGGGSDSI [TNRC6B, Q9UPQ9] ?
below the threshold

Likewise for VYEVPVETKF [SLC26A3, P40879] ?
below the threshold

Likewise for GDSSRKEYFI [GYPC, P04921] ?
below the threshold
